measurement protocol: qHTS assay for small molecule agonists of retinoid X receptor alpha signaling (AID 588544)
assay context: HEK293T RXRa-UAS-bla, beta-lactamase reporter, 18 h; 530 nm emission
Records with an inconclusive call do not appear.
// values below are reported max response
Give just the numeric value; % need not be written.

For orientation, consider the following solved cases.
[
  {
    "molecule": "O=S1OC[C@@H]2[C@H](CO1)[C@@]1(Cl)C(Cl)=C(Cl)[C@]2(Cl)C1(Cl)Cl (stereo partly drawn)",
    "max response [%]": -0.24
  },
  {
    "molecule": "CC(C)(c1ccccc1)c1cc(-n2nc3ccccc3n2)c(O)c(C(C)(C)c2ccccc2)c1",
    "max response [%]": -5.71
  },
  {
    "molecule": "CC1=C(C(=O)Nc2ccccc2)SCCO1",
    "max response [%]": -2.97
  },
  {
    "molecule": "O=Cc1cccc(Oc2ccccc2)c1",
    "max response [%]": 6.44
  },
  {
    "molecule": "CC(C)(C#N)N=NC(C)(C)C#N",
    "max response [%]": -3.46
  },
  {
    "molecule": "CC(C)C1(C)N=C(c2nc3ccccc3cc2C(=O)O)NC1=O (stereo not drawn)",
    "max response [%]": 5.36
  },
  {
    "molecule": "CCOP(=O)(OCC)SCS(=O)(=O)C(C)(C)C",
    "max response [%]": 4.6
  },
  {
    "molecule": "CC(C)(C)C(=O)[C@H](Oc1ccc(Cl)cc1)n1cncn1",
    "max response [%]": 21.3
  },
  {
    "molecule": "CCOP(=O)(OCC)Oc1ccc([N+](=O)[O-])cc1",
    "max response [%]": -4.35
  },
  {
    "molecule": "ClCc1ccccc1Cl",
    "max response [%]": -22.8
  }
]

Please list max response recorded for the molecule `Clc1ccccc1-c1nnc(-c2ccccc2Cl)nn1`
-1.99

Please list max response recorded for the molecule `COP(=O)(OC)Oc1nc(Cl)c(Cl)cc1Cl`
28.3

Please list max response recorded for the molecule `CCCCOC(=O)c1ccccc1C(=O)O`
-15.3

* * *

System: CP291
measurement protocol: qHTS profiling for inhibitors of Plasmodium falciparum proliferation (AID 504749); further: nearly all actives have a fitted effect of over 60% in size
assay context: P. falciparum in erythrocytes, SYBR Green DNA, 72 h; series mostly up to 28.7 µM
Results filed as inconclusive are left out. The source made the active and inactive calls. Calls follow the shape of the dose curve; as a rule, active = well fitted inhibition curve with a large enough effect; inconclusive = small, poorly fitted or top-dose-only effect; inactive = flat fitted curve, though single readings scatter.
Select the matching outcome among label 1 = active, label 0 = inactive

Example entries begin here.
[
  {
    "compound": "C=CC[N+]1(C)CCC23c4c5ccc(O)c4O[C@H]2C(=O)CC[C@@]3(O)C1C5 (stereo not given in full)",
    "group label": "label 0"
  },
  {
    "compound": "C[C@@H]1CC[C@H]2[C@@H](C)C(=O)O[C@@H]3OC4(C)CC[C@@H]1C32OO4 (stereo not given in full)",
    "group label": "label 1"
  }
]

Which result was noted for this compound in the test: `C=C1Nc2ccccc2C(=O)N1c1ccccc1C`
label 0

Which result was noted for this compound in the test: `CC1(C)[C@@H](C=C(Cl)Cl)[C@@H]1C(=O)OCc1c(F)c(F)cc(F)c1F`
label 0

Which result was noted for this compound in the test: `CCOC(=O)c1cncn1[C@@H](C)c1ccccc1`
label 0
